Origin of values: ChEMBL document CHEMBL1146049

- target-of-assay: Calpain 1 (Homo sapiens, UniProt P04632+P07384)
- Sequence (P04632 whole entry): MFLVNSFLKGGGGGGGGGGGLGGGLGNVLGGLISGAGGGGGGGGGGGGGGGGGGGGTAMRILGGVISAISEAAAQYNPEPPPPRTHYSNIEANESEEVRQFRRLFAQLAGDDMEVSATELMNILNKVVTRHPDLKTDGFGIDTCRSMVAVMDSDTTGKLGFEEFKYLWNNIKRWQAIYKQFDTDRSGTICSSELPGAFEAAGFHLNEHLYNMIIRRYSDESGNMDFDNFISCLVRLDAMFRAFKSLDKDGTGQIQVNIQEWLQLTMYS
- Sequence (P07384 whole entry): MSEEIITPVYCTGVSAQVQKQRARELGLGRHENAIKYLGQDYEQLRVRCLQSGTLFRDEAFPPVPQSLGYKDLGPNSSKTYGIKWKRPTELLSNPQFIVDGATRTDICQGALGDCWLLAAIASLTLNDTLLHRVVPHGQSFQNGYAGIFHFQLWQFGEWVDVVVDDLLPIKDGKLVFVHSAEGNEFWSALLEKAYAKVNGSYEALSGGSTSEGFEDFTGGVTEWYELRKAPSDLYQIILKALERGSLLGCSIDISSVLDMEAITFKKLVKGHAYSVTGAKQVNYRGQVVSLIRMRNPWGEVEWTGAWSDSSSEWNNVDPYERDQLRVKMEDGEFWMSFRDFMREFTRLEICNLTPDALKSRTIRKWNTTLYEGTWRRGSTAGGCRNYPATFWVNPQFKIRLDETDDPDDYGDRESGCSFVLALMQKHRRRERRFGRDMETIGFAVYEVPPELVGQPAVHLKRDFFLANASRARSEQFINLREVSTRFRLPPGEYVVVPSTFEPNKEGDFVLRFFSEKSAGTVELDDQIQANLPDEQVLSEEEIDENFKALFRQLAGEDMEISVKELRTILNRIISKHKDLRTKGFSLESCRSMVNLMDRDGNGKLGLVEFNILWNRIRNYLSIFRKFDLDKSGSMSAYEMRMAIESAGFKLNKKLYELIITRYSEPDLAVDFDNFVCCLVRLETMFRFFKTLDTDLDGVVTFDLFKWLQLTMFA
- assay-text: Inhibition of isolated human calpain1
assay-endpoint: IC50 (nM)
Give a bare numeral; the unit nM is implied.

Challenge: For Calpain 1 (Homo sapiens, UniProt P04632+P07384), give the measured IC50 of the entry CC(C)C[C@H](NC(=O)COc1ccc2c(c1)Nc1ccccc1S2)C(=O)N[C@@H](CC(C)C)C(=O)N[C@H]1CCOC1O (stereo in doubt; 6d)
Response given: 105
